Tested on: tetA promoter (PtetA)-lacZ reporter in E. coli KM3
Assay type: cell-based
Settings: Table 4; chlorsulfuron 20 μg/ml (20 ppm); 48 hrs at 30° C.
List of relative β-galactosidase activity, inducer Cs values.
Lab note: jot the number down without any unit.

L1-2: library L1 hit, sulfonylurea-responsive TetR(B) variant, SEQ ID NO: 3 (protein, Sulfonylurea responsive repressor L1-02) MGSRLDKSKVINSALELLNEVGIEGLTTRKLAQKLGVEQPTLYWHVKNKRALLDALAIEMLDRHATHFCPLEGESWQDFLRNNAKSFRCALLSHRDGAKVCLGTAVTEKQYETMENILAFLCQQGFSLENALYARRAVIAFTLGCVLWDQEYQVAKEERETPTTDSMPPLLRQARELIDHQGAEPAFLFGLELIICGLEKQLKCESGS | 4.1

Then there is this molecule:
relative β-galactosidase activity, inducer Cs for L1-28: library L1 hit, sulfonylurea-responsive TetR(B) variant (protein, Sulfonylurea responsive repressor L1-28) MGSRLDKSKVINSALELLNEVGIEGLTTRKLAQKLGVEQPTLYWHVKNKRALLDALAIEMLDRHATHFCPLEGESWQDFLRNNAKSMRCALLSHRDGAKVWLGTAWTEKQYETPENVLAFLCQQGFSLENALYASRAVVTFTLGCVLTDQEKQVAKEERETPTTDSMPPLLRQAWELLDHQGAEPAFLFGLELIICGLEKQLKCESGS ? 5.8
